Reference source: patent US20240270762A1

Measured MIC of individual entries
tested on: N. gonorrhoeae ATCC 49226; assay: Liquid broth MIC in Fastidious broth; details: Neisseria gonorrhoeae, ATCC49226, read-out: Minimum Inhibitory Concentration (MIC), N. gonorrhoeae ATCC 49226

Some solved entries appear below for comparison.
O=C(CN1CCN(C(=O)NC(C(=O)N[C@H]2Cc3ccc(F)c(C(=O)O)c3OB2O)c2cc(F)c(O)c(O)c2Cl)C(=O)C1=O)Nc1ccccc1 (stereo partly drawn)    16 to 32 µg/mL
CN1CCN(C(=O)NC(C(=O)N[C@H]2Cc3cccc(C(=O)O)c3OB2O)c2ccc(P(=O)(O)O)cc2)C1=O (stereo partly drawn)    < 1 µg/mL
O=C(O)c1cccc2c1OB(O)[C@@H](NC(=O)[C@@H](NC(=O)c1cnc3sccn3c1=O)c1ccc(P(=O)(O)O)cc1)C2 (single isomer, unassigned)    4 to 8 µg/mL

Query string: Reported MIC for O=C(O)c1cccc2c1OB(O)[C@@H](NC(=O)C(NC(=O)C1CCCCC1)c1ccc(P(=O)(O)O)cc1)C2 (stereo partly drawn) : what is it?
Result string: 16 to 32 µg/mL

Query string: Item CN(CCN1CCN(C(=O)N[C@@H](C(=O)N[C@H]2Cc3ccc(F)c(C(=O)O)c3OB2O)c2cc(F)c(O)c(O)c2Cl)C(=O)C1=O)Cc1ccc(C(N)=O)cc1 has what recorded MIC?
Result string: 16 to 32 µg/mL

Query string: Bench note: what MIC did O=C(O)c1c(F)ccc2c1OB(O)[C@@H](NC(=O)[C@H](NC(=O)N1CCN(CCNC(=O)[C@@H]3CCCN3)C(=O)C1=O)c1cc(F)c(O)c(O)c1Cl)C2 show?
Result string: 16 to 32 µg/mL
